# Test system: P388 leukemia ip, CD2F1 mice, survival T/C
# Assay overview: NCI In Vivo Anticancer Drug Screen. Data for tumor model P388 Leukemia (intraperitoneal) in CD2F1 (CDF1) mice
# Recorded conditions: endpoint: median survival time; dose: 200.0 mg/kg/injection; schedule: Q01DX001 (ip); vehicle: Klucel (hydroxypropylcellulose) (HPC); higher = longer survival
Toxic doses and inconclusive results are not listed.
Measured T/C, listed per entry.

# example entries with known answers
[
  {
    "Molecule": "CCC(=O)OCc1c(-c2ccccc2)nc2sccn12",
    "T/C": "103 % of control"
  },
  {
    "Molecule": "Cc1[nH]c2cc3c(cc2c(=O)c1Cc1c(C)[nH]c2cc4c(cc2c1=O)CCCC4)CCCC3",
    "T/C": "88 % of control"
  },
  {
    "Molecule": "Cc1ccccc1NC(=O)Nc1ccc(N(CCCl)CCCl)cc1",
    "T/C": "120 % of control"
  },
  {
    "Molecule": "CCC1(CC)CCC(C(=O)OC)/C1=N\\Nc1ccc([N+](=O)[O-])cc1[N+](=O)[O-] (stereo unspecified)",
    "T/C": "98 % of control"
  },
  {
    "Molecule": "CCC(=O)n1c(Cl)c(/C=N/NC(N)=S)c2ccccc21",
    "T/C": "100 % of control"
  }
]

Enquiry: Record request: T/C value, item O=C(/C=C/c1ccccc1)Oc1ccccc1[N+](=O)[O-]
Return: 93 % of control

Enquiry: Record request: T/C value, item Cc1ccc(C(C(=O)O)(c2ccc(C)cc2)C(O)C(=O)O)cc1 (stereo unspecified)
Return: 107 % of control

Enquiry: Record request: T/C value, item CCOC1=C(C)C(N(CC)CC)=NS(=O)(=O)c2ccccc21
Return: 103 % of control

Enquiry: Record request: T/C value, item CSC(=S)n1nc(-c2ccccc2)c(N=Nc2ccccc2[N+](=O)[O-])c1C
Return: 102 % of control

Enquiry: Record request: T/C value, item COc1ccc2nc(N=Nc3ccc(N4CCOCC4)cc3C)sc2c1
Return: 86 % of control

Enquiry: Record request: T/C value, item Cc1ccc(S(=O)(=O)N/N=C/c2c(Br)nc3n2CCS3)cc1
Return: 89 % of control

* * *

# Test system: P388 leukemia ip, CD2F1 mice, survival T/C
# Assay overview: NCI In Vivo Anticancer Drug Screen. Data for tumor model P388 Leukemia (intraperitoneal) in CD2F1 (CDF1) mice
# Recorded conditions: endpoint: median survival time; dose: 100.0 mg/kg/injection; schedule: Q01DX005 (ip); vehicle: saline with Tween-80
Toxic doses and inconclusive results are not listed. The calls were made as follows: active = survival T/C of 150% or more; inactive = T/C below 125% in these data.
In this exercise, the only acceptable responses are active, inactive

[
  {
    "Compound": "N=C(N)SC1C=C(O)C=C(c2c(O)c(=O)oc3ccccc23)C1=O (configuration not stated)",
    "Category label": "inactive"
  },
  {
    "Compound": "O=C1c2cccc3cccc(c23)C(=O)N1CCCCCCCCN1C(=O)c2cccc3cccc(c23)C1=O",
    "Category label": "inactive"
  },
  {
    "Compound": "COc1ccc2c(c1)OC(C)(C)C(c1ccccc1)=C2c1ccc2c(c1)NC(=O)CO2",
    "Category label": "inactive"
  },
  {
    "Compound": "CCN=C1NS(=O)(=O)c2ccccc21",
    "Category label": "inactive"
  },
  {
    "Compound": "CSc1cc(C)c(C#N)c(SC)n1",
    "Category label": "inactive"
  },
  {
    "Compound": "CCN(CC)CCNc1cccc2c(SC)ccnc12",
    "Category label": "inactive"
  },
  {
    "Compound": "O=c1c2cc3c(=O)n(CC#CCN4CCCCC4)c(=O)c3cc2c(=O)n1CC#CCN1CCCCC1",
    "Category label": "inactive"
  },
  {
    "Compound": "OC(C[n+]1ccccc1)c1ccc2c(c1)OCO2 (configuration not stated)",
    "Category label": "inactive"
  }
]

From here, focus on the item given below.
Enquiry: Call for entry CNC(=O)N(C)N=NCCCl :
Return: active
